These measurements were taken from paper PMC8297771.

testProtocol: In vivo pharmacokinetics in SD rats
experimentalConditions: Sprague-Dawley, plasma, po; Rat; 10 mg/kg (p.o); read-out: Ft (oral bioavailability)
Method: Study design: […]). Group 1 was dosed with STP0404 at 1 mg/kg by single intravenous administration. […] The vehicle used for IV study was DMSO: PEG400: […] […] STP0404 concentrations in plasma samples were determined by LC-MS/MS. […] Following single STP0404 2 mg/kg oral and intravenous administration to Beagle Dogs, STP0404 concentration was determined in plasma, and pharmacokinetic parameters were calculated. […] The concentrations of STP0404 in plasma were determined by using a LC/MS/MS method.
observationType: bioavailability (%)

molecule="Cc1nc2c(c(C)c(C)n2Cc2cnn(C)c2)c(-c2ccc(Cl)cc2)c1[C@H](OC(C)(C)C)C(=O)O [STP0404]" resultunits=% readoutnumber=92.8
